Target: Beta-2 adrenergic receptor (Homo sapiens)
Experiment: agonist-induced loss of surface beta2AR – cell-based, FAP fluorogen, flow cytometry, primary screen (AID 504454)
Details: Am2.2-beta2AR cells, FAP receptor internalization, concentration not given here
Out of some 340,000 compounds screened, about 1,400 (0.41%) were called active.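 How the source made its calls: active means response above a set limit, near 3 SD of response in nonfluorescent compounds (cut at about 42% in these data); inactive means the rest.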 Many of the other results were omitted from the sample, so actives are more common in it than they were.
Please answer using one outcome listed in yes (active), no (inactive)

* COC(=O)N/N=C/c1cn(CCCOc2ccc(C)cc2)c2ccccc12 | yes
* Cc1ccc(CNC(=O)CCC(=O)N2CC(C)Sc3ccccc32)cc1 (centres undefined) | no
* CC(C)CC(=O)NC(=S)NNC(=O)c1cccc([N+](=O)[O-])c1 | no
* O=C(CNC(=O)c1ccccc1F)OCC(=O)c1c[nH]c2ccccc12 | no
* CCOC(=O)c1c(-c2ccccc2)oc2ccc(OCC(=O)NN)cc12 | no

input: Which outcome did this test record for the molecule C/C(=N\N)c1c(-c2ccccc2)c2cc(Br)ccc2[nH]c1=O ?
output: no

input: Dear all, I need the recorded test outcome for COc1ccc(CCC(=O)c2ccc(OC)cc2)cc1 , thank you.
output: no

input: Status in this test for COc1cccc(Cn2cc(/C=N/NC(=O)c3cc(O)cc(O)c3)c3ccccc32)c1 ?
output: no

input: So what was the verdict on Cc1ccc(Sc2cc(N3CCOCC3)nc(-c3ccccc3)n2)cc1 in this test?
output: yes

Where do these numbers come from? They come from PubChem BioAssay AID504454.
